Test: Pharmacokinetic analysis of test compounds in AAV/HBV model mice
Type: in vivo, C57BL/6 mice
Conditions: C57BL/6, mouse, serum; group 2, 10 mg/kg BID oral, day 27, 8 hours after the first dosage; read-out: average drug concentration in the mouse serum
result.type: concentration at 8 h (nM)

> print(dat)
                               query.smiles  numeric.result
1  Cc1cc2n(c1)S(=O)(=O)c1ccc(C(=O)NCC[C@H]3COCCO3)cc1NC2=O             605

====

Experiment: Pharmacokinetic analysis of test compounds in AAV/HBV model mice
Type: in vivo, C57BL/6 mice
Details: C57BL/6, mouse, serum, po; 10 mg/kg, BID, AAV/HBV model mice, day 27
result.type: half-life (h)

> print(dat)
                               query.smiles  unit.of.measurement  numeric.result
1  Cc1cc2n(c1)S(=O)(=O)c1ccc(C(=O)NCC[C@H]3COCCO3)cc1NC2=O                    h            2.23

====

Experiment: Pharmacokinetic analysis of test compounds in AAV/HBV model mice
Type: in vivo, C57BL/6 mice
Conditions: C57BL/6, mouse, serum; group 2, 10 mg/kg BID oral, day 27, 4 hours after the first dosage; read-out: average drug concentration in the mouse serum
result.type: concentration at 4 h (nM)

> print(dat)
                               query.smiles  numeric.result
1  Cc1cc2n(c1)S(=O)(=O)c1ccc(C(=O)NCC[C@H]3COCCO3)cc1NC2=O            1630
